Target: EGFR on EGFR positive non-small cell lung cancer cells NCI-H1650 (UniProt P00533 25-1210)
Assay: cell-based or functional assay
measured.quantity: H1650 CTG-3D EC50 (µg/mL)
Give bare numbers, in µg/mL.

Hi team, please reply with H1650 CTG-3D EC50 for each item in this list.
1. AbG-TV (antibody, human IgG1, kappa, V domains shown, synthon TV on reduced interchain cysteines; average DAR 3.7 per ADC) VH: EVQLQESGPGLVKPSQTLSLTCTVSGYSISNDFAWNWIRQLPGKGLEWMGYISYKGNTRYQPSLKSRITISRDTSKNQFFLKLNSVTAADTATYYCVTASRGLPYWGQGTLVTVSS VL: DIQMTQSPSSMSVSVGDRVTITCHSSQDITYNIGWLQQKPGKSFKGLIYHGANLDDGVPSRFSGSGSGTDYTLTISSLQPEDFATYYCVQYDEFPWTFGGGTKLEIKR
2. AbK-CZ (antibody, human IgG1, kappa, V domains shown, synthon CZ on reduced interchain cysteines; average DAR 3.4 per ADC) VH: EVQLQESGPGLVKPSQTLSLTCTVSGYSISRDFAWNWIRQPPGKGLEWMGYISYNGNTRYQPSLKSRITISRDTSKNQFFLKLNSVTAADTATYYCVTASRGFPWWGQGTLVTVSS VL: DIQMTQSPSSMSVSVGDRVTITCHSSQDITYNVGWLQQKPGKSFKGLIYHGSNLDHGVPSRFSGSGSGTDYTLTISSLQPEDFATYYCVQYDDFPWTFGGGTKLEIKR
3. AbB-WD (antibody, human IgG1, kappa, V domains shown, synthon WD on reduced interchain cysteines; average DAR 1.6 per ADC) VH: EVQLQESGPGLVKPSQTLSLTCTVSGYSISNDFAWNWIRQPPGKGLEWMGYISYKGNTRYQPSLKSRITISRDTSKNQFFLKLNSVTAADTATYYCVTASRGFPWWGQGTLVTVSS VL: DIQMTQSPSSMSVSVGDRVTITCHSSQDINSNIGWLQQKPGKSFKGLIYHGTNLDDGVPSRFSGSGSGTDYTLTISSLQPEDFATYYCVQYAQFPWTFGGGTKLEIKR
4. AbB-YY (antibody, human IgG1, kappa, V domains shown, synthon YY on reduced interchain cysteines; average DAR 2.2 per ADC) VH: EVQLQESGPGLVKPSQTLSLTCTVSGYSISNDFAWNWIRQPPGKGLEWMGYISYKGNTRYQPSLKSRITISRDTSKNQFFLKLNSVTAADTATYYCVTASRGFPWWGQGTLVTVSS VL: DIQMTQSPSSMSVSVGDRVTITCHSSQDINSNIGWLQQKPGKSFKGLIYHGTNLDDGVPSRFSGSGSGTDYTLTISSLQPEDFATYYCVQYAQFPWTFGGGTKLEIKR
5. AbK-AAA (antibody, human IgG1, kappa, V domains shown, synthon AAA on reduced interchain cysteines; average DAR 1.6 per ADC) VH: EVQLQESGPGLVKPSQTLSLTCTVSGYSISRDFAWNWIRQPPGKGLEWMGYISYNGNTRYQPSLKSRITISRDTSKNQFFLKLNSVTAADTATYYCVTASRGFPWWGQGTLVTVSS VL: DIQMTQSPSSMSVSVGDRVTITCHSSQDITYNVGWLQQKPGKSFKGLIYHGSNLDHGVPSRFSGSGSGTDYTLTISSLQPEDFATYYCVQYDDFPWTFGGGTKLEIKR

1. 0.03
2. 0.08
3. 2.69
4. 8.6
5. 0.11

Recorded values, source patent US20240199745A1.
